Source listed as paper PMC2409716.

# EXPERIMENT DESCRIPTION: clinical
# CONDITIONS: human, plasma, po
QUANTITY KIND: tmax (h)
Entry rule: numbers only, all in h.

Query string: Quote tmax reported for Cn1cncc1[C@@](N)(c1ccc(Cl)cc1)c1ccc2c(c1)c(-c1cccc(Cl)c1)cc(=O)n2C [R115777] please.
Result string: 2.1

###

# EXPERIMENT DESCRIPTION: clinical
# CONDITIONS: human, in vivo
QUANTITY KIND: Cmax (ng/mL)
Entry rule: numbers only, all in ng/mL.

Query string: Quote Cmax reported for `CCc1c2c(nc3ccc(OC(=O)N4CCC(N5CCCCC5)CC4)cc13)-c1cc3c(c(=O)n1C2)COC(=O)[C@]3(O)CC` please.
Result string: 3620

###

# EXPERIMENT DESCRIPTION: clinical
# CONDITIONS: human, in vivo, 350 mg
QUANTITY KIND: half-life (h)
Entry rule: numbers only, all in h.

Query string: Quote half-life reported for CCc1c2c(nc3ccc(O)cc13)-c1cc3c(c(=O)n1C2)COC(=O)[C@]3(O)CC [SN-38, 7-ethyl-10-hydroxycamptothecin] please.
Result string: 18.1

###

# EXPERIMENT DESCRIPTION: clinical
# CONDITIONS: human, plasma, po, 200 mg
QUANTITY KIND: tmax
Answer shape: numeric part, then the unit.

Query string: Quote tmax reported for Cn1cncc1[C@@](N)(c1ccc(Cl)cc1)c1ccc2c(c1)c(-c1cccc(Cl)c1)cc(=O)n2C [R115777] please.
Result string: 2 h

###

# EXPERIMENT DESCRIPTION: clinical
# CONDITIONS: human, plasma, intravenous, 350 mg
QUANTITY KIND: AUC(0-t) (ng·h/mL)
Entry rule: numbers only, all in ng·h/mL.

Query string: Quote AUC(0-t) reported for CCc1c2c(nc3ccc(O)cc13)-c1cc3c(c(=O)n1C2)COC(=O)[C@]3(O)CC [SN-38, 7-ethyl-10-hydroxycamptothecin] please.
Result string: 326
